# TEST_TARGET: HIFPH2 (EGLN1) (Homo sapiens (Human), UniProt Q9GZT9)
# Sequence (Q9GZT9 179-426): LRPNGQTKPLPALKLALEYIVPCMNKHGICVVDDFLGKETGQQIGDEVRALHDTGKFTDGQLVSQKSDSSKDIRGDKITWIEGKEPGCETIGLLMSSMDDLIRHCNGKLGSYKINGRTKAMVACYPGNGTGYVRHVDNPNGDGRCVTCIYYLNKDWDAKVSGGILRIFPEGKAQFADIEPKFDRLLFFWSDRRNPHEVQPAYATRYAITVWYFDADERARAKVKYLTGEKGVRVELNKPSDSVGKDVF
# PROTOCOL_SUMMARY: EGLN-1 Activity Assay (MALDI-TOF MS)
# ASSAY_CONDITIONS: recombinant human EGLN-1-179/426, HIF-1α peptide 556-574
Values of IC50 strictly less than 10 µM map to Condition met, and values of at least 10 µM map to Condition not met.

[[record]]
compound = "Cc1ccc(S(=O)(=O)n2ccc(CN3CCN(c4ccc(Cl)nn4)CC3)c(O)c2=O)cc1"
group = "Condition not met"


[ask] Quick check: does Cc1ccc(S(=O)(=O)n2ccc(CN3CCC(N4CCCCC4)CC3)c(O)c2=O)cc1 have IC50 under 10 µM?
[reply] Condition met

[ask] Does the reported IC50 of the following compound sit strictly below 10 µM? CSCCNCc1ccn(Cc2ccccc2)c(=O)c1O
[reply] Condition not met

[ask] Take the compound O=c1c(O)cccn1Cc1cccc(Cl)c1 and say whether its IC50 is less than 10 µM.
[reply] Condition met

[ask] Take the compound COC[C@H]1CCCN1Cc1ccn(Cc2ccccc2)c(=O)c1O and say whether its IC50 is less than 10 µM.
[reply] Condition met

[ask] Identify whether the compound COc1ccccc1Cn1ccc(CN2CCCCCC2)c(O)c1=O records IC50 below 10 µM.
[reply] Condition not met

[ask] Quick check: IC50 of CC(NCc1ccn(Cc2ccccc2)c(=O)c1O)c1ccccc1 (stereo not drawn) under 10 µM?
[reply] Condition not met

[ask] Determine whether this compound shows IC50 lower than 10 µM (ties excluded): O=c1c(O)c(CNCCCn2ccnc2)ccn1Cc1ccccc1
[reply] Condition not met

[ask] Please let me know if O=c1c(O)c(CN2CCN(c3ccc(Cl)nn3)CC2)ccn1Cc1ccccc1 shows IC50 below 10 µM.
[reply] Condition not met

----------
// values below are reported pIC50
# TEST_TARGET: HIFPH2 (EGLN1) (Homo sapiens (Human))
# PROTOCOL_SUMMARY: EGLN-1 Activity Assay (MALDI-TOF MS)
# ASSAY_CONDITIONS: recombinant human EGLN-1-179/426, HIF-1α peptide 556-574
Answer as the number alone; pIC50 is minus log10 of concentration in mol/L.

[[record]]
compound = "O=c1c(O)cccn1Cc1ccc(Cl)cc1"
numeric_result = 5.92

[[record]]
compound = "O=C1NCCCCC1NCc1ccn(Cc2ccccc2)c(=O)c1O (stereo not shown)"
numeric_result = 4.92

[[record]]
compound = "CC1CCC(NCc2ccn(Cc3ccccc3)c(=O)c2O)CC1 (stereo not shown)"
numeric_result = 4.96


Could you now look at the following compound, please?
[ask] Let me know recorded pIC50 for CC(C)(C)OC(=O)N1CCN(Cc2ccn(Cc3ccc(Cl)cc3)c(=O)c2O)CC1 , thanks.
[reply] 4.85

----------
# PROTOCOL_SUMMARY: solubility of pharmaceutically acceptable salts in water
# Format: physicochemical
# ASSAY_CONDITIONS: thermodynamic from solid; distilled deionized water, sonicated 20 min, under 25° C., HPLC
OUTCOME_MEASURE: solubility at 20 min (µg/mL)
Form entry: value (µg/mL) — number only.

[ask] Given CC(C)(C)OC(=O)N1CCN(Cc2ccn(Cc3ccc(Cl)cc3)c(=O)c2O)CC1.CS(=O)(=O)O [methanesulfonate] , respond with its solubility at 20 min.
[reply] 16600

The measured values listed here are drawn from patent US8536181B2.
